Listed below: IC50 activity group, enzyme release assay values for each entry.
# tgt: T1, human C5aR (CD88) (human, UniProt P21730 1-350)
# T1 sequence (looked up): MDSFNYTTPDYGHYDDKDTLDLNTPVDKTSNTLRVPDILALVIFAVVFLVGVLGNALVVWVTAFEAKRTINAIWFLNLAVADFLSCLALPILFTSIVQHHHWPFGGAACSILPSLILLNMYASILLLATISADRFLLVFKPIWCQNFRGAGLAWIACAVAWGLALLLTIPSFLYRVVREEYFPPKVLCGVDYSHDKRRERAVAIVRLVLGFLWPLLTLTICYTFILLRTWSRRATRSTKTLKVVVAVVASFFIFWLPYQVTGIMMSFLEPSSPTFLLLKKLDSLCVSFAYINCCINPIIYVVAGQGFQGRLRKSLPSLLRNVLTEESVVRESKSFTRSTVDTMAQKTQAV
# procedureSummary: cell-based or functional assay
Starred links: 1 amine or outer side, 2 acyl side, 3 side chain; linkers in the order of their positions; H or OH if unused. Positions of bridges follow the written chain, without caps; N, C: chain ends. Non-standard residues stand in square brackets, D forms with d. No end group written: not given here. 2‑Acetamido‑1‑Methyl‑Glucuronyl = 2-Acetamido-1-methyl-glucuronyl N-terminal group; Ecp = His(tau-4-methoxybenzyl), COc1ccc(Cn2cnc(C[C@H](N[*:1])C(=O)[*:2])c2)cc1; Fck = HO-CH2-(CHOH)4-C=N-O-CH2-CO- (oxime-linked sugar acyl cap); 2Thi = N[C@@H](Cc1cccs1)C(=O)O; dCha = N[C@H](CC1CCCCC1)C(=O)O; Nle = CCCC[C@H](N)C(=O)O; Orn = NCCC[C@H](N)C(=O)O

Some binders with known IC50 activity group, enzyme release assay results, for comparison:
binder	measuredValue
{2‑Acetamido‑1‑Methyl‑Glucuronyl}-F[Orn]P[dCha]W[Nle] (lactam 2-C) [X-Phe-[Orn-Pro-cha-Trp-Nle]; X = 2-Acetamido-1-Methyl-Glucuronyl]	≤ 50 nM
FXPXWR (not fully specified; Ac-; Orn2; cha4 (D); Arg(Me2)6; cyclic [2-6]) [Ac-Phe-[Orn-Pro-cha-Trp-Arg(Me2)]]	≤ 200 nM
Ac-F[Orn]P[dCha]W[Ecp] (lactam (positions not given here); not fully specified (bridges); printed as Ac-Phe-[Orn-Pro-cha-Trp-Ecp]) [Ac-Phe-[Orn-Pro-cha-Trp-Ecp]]	≤ 2000 nM
Ac-F[Orn]P[dCha]W[2Thi]-NH2 [Ac-Phe-Orn-Pro-cha-Trp-Thi-NH2]	≤ 200 nM

Fck-F[Orn]P[dCha]W[Nle] (bridge (positions not given here); not fully specified; printed as Fck-[Phe-Orn-Pro-cha-Trp-Nle]; also: cyclic [1-6], linkage not given here) [Fck-[Phe-Orn-Pro-cha-Trp-Nle]] yielded IC50 activity group, enzyme release assay of ≤ 200 nM

Cited source: patent US7727960B2
